- Test system: NCI-H460 lung
- METHOD SUMMARY: NCI-60 one-dose screen, 48 h
- CONDITION LABEL: 10 µM unless noted
The panel holds about 83,000 compounds, 20% with a hit somewhere; the sample as a whole holds those more often. Activity calls are given as the source filed them. The calls were made as follows: active = growth percent below 10; inactive = the rest.
# valid calls are active, inactive; nothing else

The following molecules have reported results that may help.
{"MOLECULE": "C/C(=C\\CCc1ccsc1)CC/C=C(\\C)CCCN1CCN(CCO)CC1", "CATEGORY": "inactive"}
{"MOLECULE": "COc1ccc2c(c1)C(=O)/C(=C/c1cccc(OCC(=O)c3ccccc3)c1)CC2", "CATEGORY": "inactive"}
{"MOLECULE": "Cc1nn(-c2ccccc2)c2nc3c(nc12)C(=O)CCC3", "CATEGORY": "inactive"}
{"MOLECULE": "CCOC(=O)c1ccccc1OC(=O)NNc1ccccc1", "CATEGORY": "inactive"}
{"MOLECULE": "COc1ccc(-n2nnc(C(=O)O)c2-c2cc(OC)c(OC)c(OC)c2)cc1", "CATEGORY": "inactive"}
{"MOLECULE": "O=C(CCc1nnc(SCc2ccccc2)s1)c1nc2ccccc2[nH]1", "CATEGORY": "inactive"}
{"MOLECULE": "O=C1OCCCCCCCCCC#Cc2ccccc21", "CATEGORY": "inactive"}
{"MOLECULE": "Cc1nn(-c2ccc(Cl)cc2)c2nc3c(nc12)C(=O)C(=O)c1ccccc1-3", "CATEGORY": "active"}
{"MOLECULE": "CC(c1ccccn1)C(C)(O)C(C)c1ccccn1 (configuration not stated)", "CATEGORY": "inactive"}
{"MOLECULE": "CCC(O)C(C)(C)C (configuration not stated)", "CATEGORY": "inactive"}

Request: Dear all, I need the recorded test outcome for CCC1(c2ccccc2)Oc2ccccc2-n2c(C#N)c3ccccc3c2C1=O (configuration not stated) , thank you.
Result: inactive

Request: Dear all, I need the recorded test outcome for CCC(C)CC(CC)NCCN1CCN(C(CC)CC(C)CC)C1=S (configuration not stated) , thank you.
Result: active
